system: DeltatarO mutant; experiment: S. aureus survival, RN4220 and DeltatarO strains – OD600, teichoic acid synthesis inhibitors, primary screen (AID 463173); conditions: S. aureus RN4220 wild type/DeltatarO growth, OD600, 18 h, active compounds read low, screened at 18.75 µg/mL (by protocol)
Out of some 52,000 compounds screened, about 4,300 (8.3%) were called active. The list comes from a sample in which actives are over-represented; it also holds close analogues and randomly drawn compounds.
Values of survival strictly less than 80% map to satisfied, and values of at least 80% map to not satisfied.

1) O=C1c2ccccc2C(=O)N1c1ncn[nH]1 :: not satisfied
2) CNC(=O)C1CCC(Cn2c(=O)c3sccc3n(CC(=O)Nc3ccccc3)c2=O)CC1 (stereo not drawn) :: satisfied
3) O=C1Nc2c(c(=O)[nH]c(=O)n2-c2ccc(F)cc2)C1(NS(=O)(=O)c1ccc(Cl)cc1)C(F)(F)F (stereo not drawn) :: satisfied
4) COc1ccc(-c2cn3cccnc3n2)cc1NC(=O)Nc1ccc(Cl)cc1 :: not satisfied
5) Cc1ccc(Cn2c(C(=O)O)c(CNCc3ccc(C)o3)c3ccc(C)cc32)cc1 :: satisfied
6) O=C(OCc1ccccc1)Sc1nnc(-c2ccccc2Cl)o1 :: not satisfied
7) COCCn1c(CNC(=O)c2cccc(C)c2)nc2cccnc21 :: not satisfied
8) Cc1cc(NC(=O)CCn2c(=O)c3cccn3c3cccnc32)ccc1Br :: not satisfied
9) Cn1c(CNc2ccc(Cl)cc2)nnc1SCc1ccc(Cl)cc1 :: satisfied
10) Cc1nc2c(C(=O)NCc3ccccc3)c[nH]n2c(=O)c1Cc1ccccc1Cl :: satisfied
11) O=C1CC(c2ccccc2)Cc2[nH]c(=O)c(-c3nc(-c4ccc(Cl)cc4)cs3)cc21 (stereo not drawn) :: satisfied
12) Cc1ccc(CSc2ncccc2C(=O)O)cc1 :: not satisfied
13) CCOc1ccccc1NC(=O)C(C)N(c1ccccc1)S(C)(=O)=O (stereo not drawn) :: not satisfied
14) CCOc1ccc(NC(=O)c2sc3nc4c(c(-c5ccccc5)c3c2N)C(=O)CC(C)(C)C4)cc1 :: satisfied
15) CC(C)c1ccc(OCC(=O)Nc2c(C(=O)c3ccc(F)cc3)oc3ccccc23)cc1 :: satisfied
16) CCCNC(=O)c1cnc2sc(N3CCCCC3)nn2c1=O :: not satisfied
